- measuredTarget: von Hippel-Lindau disease tumor suppressor/Apoptosis regulator Bcl-2 (Homo sapiens) (UniProt P10415+P40337)
- Sequence (P10415 whole entry, looked up): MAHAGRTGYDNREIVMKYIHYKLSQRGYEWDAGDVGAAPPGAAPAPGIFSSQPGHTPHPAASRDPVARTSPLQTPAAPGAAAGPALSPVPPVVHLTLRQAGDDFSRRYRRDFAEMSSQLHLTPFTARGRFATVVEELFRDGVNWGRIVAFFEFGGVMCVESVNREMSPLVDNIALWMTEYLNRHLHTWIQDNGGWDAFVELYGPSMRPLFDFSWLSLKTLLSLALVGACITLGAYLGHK
- Sequence (P40337 whole entry, looked up): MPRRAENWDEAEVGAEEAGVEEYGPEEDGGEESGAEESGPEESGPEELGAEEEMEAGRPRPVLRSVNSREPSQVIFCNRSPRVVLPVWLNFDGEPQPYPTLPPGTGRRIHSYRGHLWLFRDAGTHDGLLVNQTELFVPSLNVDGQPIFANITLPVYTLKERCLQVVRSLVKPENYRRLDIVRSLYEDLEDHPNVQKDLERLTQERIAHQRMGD
- experimentDescription: Protac activity at VHL/BCL2 in human MOLT-4 cells assessed as induction of BCL2 degradation at 100 nM measured after 16 hrs by immunoblotting analysis
- Format: cell-based
Active and inactive are the calls of the source. The calls are words filed in the database; no cut-off is given here.
measureName: Activity

INSERT INTO results (smilesnotation, measurename, observed) VALUES
  ('Cc1ncsc1-c1ccc([C@H](C)NC(=O)[C@@H]2C[C@@H](O)CN2C(=O)[C@@H](NC(=O)CC(=O)N2CCN(CC[C@H](CSc3ccccc3)Nc3ccc(S(=O)(=O)NC(=O)c4ccc(N5CCN(CC6=C(c7ccc(Cl)cc7)CCC(C)(C)C6)CC5)cc4)cc3S(=O)(=O)C(F)(F)F)CC2)C(C)(C)C)cc1', 'Activity', 'inactive'),
  ('Cc1ncsc1-c1ccc([C@H](C)NC(=O)[C@@H]2C[C@@H](O)CN2C(=O)[C@@H](NC(=O)CCCCCN2CCN(CC[C@H](CSc3ccccc3)Nc3ccc(S(=O)(=O)NC(=O)c4ccc(N5CCN(CC6=C(c7ccc(Cl)cc7)CCC(C)(C)C6)CC5)cc4)cc3S(=O)(=O)C(F)(F)F)CC2)C(C)(C)C)cc1', 'Activity', 'inactive');

---

- experimentDescription: Toxicity in human platelet assessed as reduction in cell viability measured after 48 hrs by MTS assay
- Format: tissue-based
- testConditions: human platelets
Listed below: log10 IC50 at 48 h values for each entry.
measureName: log10 IC50 at 48 h (log10 of the value in µM)

INSERT INTO measurements (smilesnotation, observed) VALUES
  ('CN(C)CC[C@H](CSc1ccccc1)Nc1ccc(S(=O)(=O)NC(=O)c2ccc(N3CCN(Cc4ccccc4-c4ccc(Cl)cc4)CC3)cc2)cc1[N+](=O)[O-]', -0.62),
  ('CN(CCCNc1cccc2c1C(=O)N([C@@H]1CCC(=O)NC1=O)C2=O)CC[C@H](CSc1ccccc1)Nc1ccc(S(=O)(=O)NC(=O)c2ccc(N3CCN(CC4=C(c5ccc(Cl)cc5)CCC(C)(C)C4)CC3)cc2)cc1S(=O)(=O)C(F)(F)F', 0.52),
  ('CC1(C)CCC(c2ccc(Cl)cc2)=C(CN2CCN(c3ccc(C(=O)NS(=O)(=O)c4ccc(N[C@H](CCN5CCN(CCOCCOCCOCCNc6cccc7c6C(=O)N([C@@H]6CCC(=O)NC6=O)C7=O)CC5)CSc5ccccc5)c(S(=O)(=O)C(F)(F)F)c4)cc3)CC2)C1', 0.19),
  ('CN(CCOCCOCCOCCNc1cccc2c1C(=O)N([C@@H]1CCC(=O)NC1=O)C2=O)CC[C@H](CSc1ccccc1)Nc1ccc(S(=O)(=O)NC(=O)c2ccc(N3CCN(CC4=C(c5ccc(Cl)cc5)CCC(C)(C)C4)CC3)cc2)cc1S(=O)(=O)C(F)(F)F', 0.09),
  ('CN(CCCCCCCn1cc(COCCOCCNc2cccc3c2C(=O)N([C@@H]2CCC(=O)NC2=O)C3=O)nn1)CC[C@H](CSc1ccccc1)Nc1ccc(S(=O)(=O)NC(=O)c2ccc(N3CCN(CC4=C(c5ccc(Cl)cc5)CCC(C)(C)C4)CC3)cc2)cc1S(=O)(=O)C(F)(F)F', 0.80);

---

Listed below: Activity values for each entry.
- measuredTarget: Protein cereblon/Bcl-2-like protein 1 (Homo sapiens, UniProt Q07817+Q96SW2)
- experimentDescription: Protac activity at CRBN/BCL-XL in human MOLT-4 cells assessed as induction of BCL-XL degradation by measuring remaining BCL-XL level at 50 nM measured after 16 hrs by immunoblotting analysis relative to control
- Assay type: cell-based
- Sequence (Q07817 whole entry, looked up): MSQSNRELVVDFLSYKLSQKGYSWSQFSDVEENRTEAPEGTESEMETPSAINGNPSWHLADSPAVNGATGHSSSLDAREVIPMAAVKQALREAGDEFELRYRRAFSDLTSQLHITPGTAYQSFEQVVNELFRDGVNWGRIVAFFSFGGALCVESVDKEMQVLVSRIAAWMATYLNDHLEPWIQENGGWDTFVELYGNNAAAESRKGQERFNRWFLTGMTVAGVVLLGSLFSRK
- Sequence (Q96SW2 whole entry, looked up): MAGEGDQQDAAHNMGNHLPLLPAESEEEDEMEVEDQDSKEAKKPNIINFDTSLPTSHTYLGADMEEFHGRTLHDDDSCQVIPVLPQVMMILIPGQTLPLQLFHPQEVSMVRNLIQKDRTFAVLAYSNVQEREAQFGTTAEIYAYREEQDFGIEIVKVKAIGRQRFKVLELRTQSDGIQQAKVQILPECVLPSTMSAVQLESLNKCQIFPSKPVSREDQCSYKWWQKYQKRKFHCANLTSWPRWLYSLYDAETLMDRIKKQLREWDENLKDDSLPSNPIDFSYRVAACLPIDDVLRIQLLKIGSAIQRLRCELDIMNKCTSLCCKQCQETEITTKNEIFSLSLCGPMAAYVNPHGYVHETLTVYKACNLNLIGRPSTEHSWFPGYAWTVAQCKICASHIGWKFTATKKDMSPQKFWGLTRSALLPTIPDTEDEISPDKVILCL
measureName: Activity (%)

INSERT INTO assay_data (smilesnotation, observed) VALUES
  ('CC1(C)CCC(c2ccc(Cl)cc2)=C(CN2CCN(c3ccc(C(=O)NS(=O)(=O)c4ccc(N[C@H](CCN5CCN(C(=O)CCCCCCNc6cccc7c6C(=O)N([C@@H]6CCC(=O)NC6=O)C7=O)CC5)CSc5ccccc5)c(S(=O)(=O)C(F)(F)F)c4)cc3)CC2)C1', 101),
  ('CC1(C)CCC(c2ccc(Cl)cc2)=C(CN2CCN(c3ccc(C(=O)NS(=O)(=O)c4ccc(N[C@H](CCN5CCN(C(=O)CCCCCCCNc6cccc7c6C(=O)N([C@@H]6CCC(=O)NC6=O)C7=O)CC5)CSc5ccccc5)c(S(=O)(=O)C(F)(F)F)c4)cc3)CC2)C1', 89),
  ('CC1(C)CCC(c2ccc(Cl)cc2)=C(CN2CCN(c3ccc(C(=O)NS(=O)(=O)c4ccc(N[C@H](CCN5CCN(C(=O)COCCOCCNc6cccc7c6C(=O)N([C@@H]6CCC(=O)NC6=O)C7=O)CC5)CSc5ccccc5)c(S(=O)(=O)C(F)(F)F)c4)cc3)CC2)C1', 20),
  ('CN(CC[C@H](CSc1ccccc1)Nc1ccc(S(=O)(=O)NC(=O)c2ccc(N3CCN(CC4=C(c5ccc(Cl)cc5)CCC(C)(C)C4)CC3)cc2)cc1S(=O)(=O)C(F)(F)F)C(=O)CCCn1cc(COCCOCCOCCNc2cccc3c2C(=O)N([C@@H]2CCC(=O)NC2=O)C3=O)nn1', 67),
  ('CN(CC[C@H](CSc1ccccc1)Nc1ccc(S(=O)(=O)NC(=O)c2ccc(N3CCN(CC4=C(c5ccc(Cl)cc5)CCC(C)(C)C4)CC3)cc2)cc1S(=O)(=O)C(F)(F)F)C(=O)CCCCCCn1cc(COCCOCCOCCNc2cccc3c2C(=O)N([C@@H]2CCC(=O)NC2=O)C3=O)nn1', 29),
  ('CN(CCCCCNc1cccc2c1C(=O)N([C@@H]1CCC(=O)NC1=O)C2=O)CC[C@H](CSc1ccccc1)Nc1ccc(S(=O)(=O)NC(=O)c2ccc(N3CCN(CC4=C(c5ccc(Cl)cc5)CCC(C)(C)C4)CC3)cc2)cc1S(=O)(=O)C(F)(F)F', 47),
  ('CN(CCCCCCNc1cccc2c1C(=O)N([C@@H]1CCC(=O)NC1=O)C2=O)CC[C@H](CSc1ccccc1)Nc1ccc(S(=O)(=O)NC(=O)c2ccc(N3CCN(CC4=C(c5ccc(Cl)cc5)CCC(C)(C)C4)CC3)cc2)cc1S(=O)(=O)C(F)(F)F', 73),
  ('CC1(C)CCC(c2ccc(Cl)cc2)=C(CN2CCN(c3ccc(C(=O)NS(=O)(=O)c4ccc(N[C@H](CCN5CCN(C(=O)CCCNc6cccc7c6C(=O)N([C@@H]6CCC(=O)NC6=O)C7=O)CC5)CSc5ccccc5)c(S(=O)(=O)C(F)(F)F)c4)cc3)CC2)C1', 44);

---

- measuredTarget: Protein cereblon/Bcl-2-like protein 1 (Homo sapiens, UniProt Q07817+Q96SW2)
- experimentDescription: Protac activity at CRBN/BCL-XL in human MOLT-4 cells assessed as induction of BCL-XL degradation measured after 16 hrs by immunoblotting analysis
- Type: cell-based
- Sequence (Q07817 whole entry): as the sequence (Q07817 whole entry, looked up) above
- Sequence (Q96SW2 whole entry): as the sequence (Q96SW2 whole entry, looked up) above
measureName: DC50 (nM)

INSERT INTO assay_data (smilesnotation, measuredtarget, measurename, observed) VALUES
  ('CC1(C)CCC(c2ccc(Cl)cc2)=C(CN2CCN(c3ccc(C(=O)NS(=O)(=O)c4ccc(N[C@H](CCN5CCN(CCOCCOCCOCCNc6cccc7c6C(=O)N([C@@H]6CCC(=O)NC6=O)C7=O)CC5)CSc5ccccc5)c(S(=O)(=O)C(F)(F)F)c4)cc3)CC2)C1', 'Protein cereblon/Bcl-2-like protein 1 (Homo sapiens, UniProt Q07817+Q96SW2)', 'DC50', 4.5),
  ('CN(CCCNc1cccc2c1C(=O)N([C@@H]1CCC(=O)NC1=O)C2=O)CC[C@H](CSc1ccccc1)Nc1ccc(S(=O)(=O)NC(=O)c2ccc(N3CCN(CC4=C(c5ccc(Cl)cc5)CCC(C)(C)C4)CC3)cc2)cc1S(=O)(=O)C(F)(F)F', 'Protein cereblon/Bcl-2-like protein 1 (Homo sapiens, UniProt Q07817+Q96SW2)', 'DC50', 10.6);

---

- measuredTarget: von Hippel-Lindau disease tumor suppressor/Bcl-2-like protein 1 (Homo sapiens, UniProt Q07817+P40337)
- Sequence (Q07817 whole entry, looked up, one chain of several): as the sequence (Q07817 whole entry, looked up) above
- experimentDescription: Protac activity at VHL/BCL-XL in human MOLT-4 cells assessed as induction of BCL-XL degradation by measuring remaining BCL-XL level at 100 nM measured after 16 hrs by immunoblotting analysis relative to control
- Format: cell-based
Listed below: Activity values for each entry.
measureName: Activity

INSERT INTO assay_data (smilesnotation, observed) VALUES
  ('Cc1ncsc1-c1ccc([C@H](C)NC(=O)[C@@H]2C[C@@H](O)CN2C(=O)[C@@H](NC(=O)COCCCOCC(=O)N2CCN(CC[C@H](CSc3ccccc3)Nc3ccc(S(=O)(=O)NC(=O)c4ccc(N5CCN(CC6=C(c7ccc(Cl)cc7)CCC(C)(C)C6)CC5)cc4)cc3S(=O)(=O)C(F)(F)F)CC2)C(C)(C)C)cc1', '48%'),
  ('Cc1ncsc1-c1ccc([C@H](C)NC(=O)[C@@H]2C[C@@H](O)CN2C(=O)[C@@H](NC(=O)CCCCCC(=O)N2CCN(CC[C@H](CSc3ccccc3)Nc3ccc(S(=O)(=O)NC(=O)c4ccc(N5CCN(CC6=C(c7ccc(Cl)cc7)CCC(C)(C)C6)CC5)cc4)cc3S(=O)(=O)C(F)(F)F)CC2)C(C)(C)C)cc1', '14%');
